target: Tissue Plasminogen Activator (t-PA) (Homo sapiens)
Sequence (P00750 36-562): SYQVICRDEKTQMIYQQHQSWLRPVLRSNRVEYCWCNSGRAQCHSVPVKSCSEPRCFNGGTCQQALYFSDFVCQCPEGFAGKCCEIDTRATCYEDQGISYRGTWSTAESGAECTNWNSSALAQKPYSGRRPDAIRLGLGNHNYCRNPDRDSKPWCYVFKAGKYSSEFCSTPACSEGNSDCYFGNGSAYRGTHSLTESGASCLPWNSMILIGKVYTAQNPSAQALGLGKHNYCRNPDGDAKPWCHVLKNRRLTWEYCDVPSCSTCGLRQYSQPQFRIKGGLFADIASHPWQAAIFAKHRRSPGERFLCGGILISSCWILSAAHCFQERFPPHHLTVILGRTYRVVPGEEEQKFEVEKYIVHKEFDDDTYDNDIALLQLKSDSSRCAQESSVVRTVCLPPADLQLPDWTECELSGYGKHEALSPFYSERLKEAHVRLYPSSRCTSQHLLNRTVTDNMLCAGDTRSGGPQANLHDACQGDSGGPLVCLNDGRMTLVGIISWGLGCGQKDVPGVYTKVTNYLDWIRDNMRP
assayMetric: pIC50
Note: pIC50 values are expressed as the negative base-10 logarithm of concentration in M.

-- ask Which measured pIC50 value corresponds to N=C(N)NCCC[C@H](NC(=O)[C@@H]1CCN2CC[C@@](N)(Cc3ccccc3)C(=O)N12)C(=O)CCl [Structure (13b)] ?
-- reply 6.20

* * *

target: Plasmin (Bos taurus)
assayMetric: IC50 (nM)
Express your answer in nM, writing the number without its unit.

-- ask Param readout = IC50; param system = Plasmin (Bos taurus); param query = N=C(N)NCCC[C@H](NC(=O)[C@@H]1CCN2CC[C@@](N)(Cc3ccccc3)C(=O)N12)C(=O)CCl [Structure (13b)] ; response: value
-- reply 978

* * *

target: UniProt:P03951; experiment: Factor XI inhibition assay (Ki); assay type: biochemical; conditions: read-out: Ki (M) Factor XI
assayMetric: Ki

-- ask Which measured Ki value corresponds to N=C(N)NCCCC(NC(=O)C1CCN2CCC(N)(Cc3ccccc3)C(=O)N12)C(=O)c1nc2ccccc2s1 (stereo not shown) [Structure (20b)] ?
-- reply 2.7e-08 M

* * *

# reported Ki; entries follow
biological target: Factor XI (Homo sapiens, UniProt P03951); assay: Factor XI inhibition assay (Ki); format: biochemical
Sequence (P03951 388-625 limits assumed): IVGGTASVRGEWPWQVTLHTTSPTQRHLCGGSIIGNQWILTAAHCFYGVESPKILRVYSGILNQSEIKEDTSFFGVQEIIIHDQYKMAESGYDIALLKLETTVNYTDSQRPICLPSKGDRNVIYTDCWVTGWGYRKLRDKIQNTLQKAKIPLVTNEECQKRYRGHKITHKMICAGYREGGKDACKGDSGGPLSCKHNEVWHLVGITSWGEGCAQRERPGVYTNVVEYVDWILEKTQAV
Sequence (P03951 19-387 limits assumed): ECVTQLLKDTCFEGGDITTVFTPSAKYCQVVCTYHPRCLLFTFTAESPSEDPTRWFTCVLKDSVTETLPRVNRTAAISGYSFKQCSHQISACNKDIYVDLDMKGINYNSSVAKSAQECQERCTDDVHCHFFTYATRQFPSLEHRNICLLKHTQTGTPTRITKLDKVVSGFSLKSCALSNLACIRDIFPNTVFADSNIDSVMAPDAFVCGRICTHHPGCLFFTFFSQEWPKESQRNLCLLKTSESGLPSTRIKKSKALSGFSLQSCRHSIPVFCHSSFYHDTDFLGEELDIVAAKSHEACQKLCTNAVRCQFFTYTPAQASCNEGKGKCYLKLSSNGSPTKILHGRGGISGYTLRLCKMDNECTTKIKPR
Express your answer in nM, writing the number without its unit.

N=C(N)NC(=O)NC[C@H](NC(=O)[C@@H]1CCN2CC[C@@](N)(Cc3ccccc3)C(=O)N12)C(=O)c1nc2ccccc2s1 [Structure (51)] : 1730

Next:
-- ask Param readout = Ki; param system = Factor XI (Homo sapiens, UniProt P03951); param query = COC(=O)c1c[nH]c(C(=O)[C@H](CCCNC(=N)N)NC(=O)[C@@H]2CCN3CC[C@@](N)(Cc4ccccc4)C(=O)N23)n1 [Structure (45)] ; response: value
-- reply 1240

* * *

target: Plasmin (Bos taurus); test: plasmin inhibition assay (Ki, Example 5); assay type: biochemical, bovine plasma; parameters: Plasmin: Buffer (see thrombin assay); from tissue; host or cells: bovine plasma; conditions: read-out: Ki (M) Plasmin
assayMetric: Ki

-- ask Which measured Ki value corresponds to N=C(N)NCCCC(NC(=O)C1CCN2CCC(N)(Cc3ccccc3)C(=O)N12)C(=O)c1nc2ccccc2s1 (stereo not shown) [Structure (20b)] ?
-- reply 4.15e-07 M

* * *

target: thrombin (Bos taurus)
assayMetric: pIC50
Note: pIC50 values are expressed as the negative base-10 logarithm of concentration in M.

-- ask Param readout = pIC50; param system = thrombin (Bos taurus); param query = N=C(N)NCCC[C@H](NC(=O)[C@@H]1CCN2CC[C@@](N)(Cc3ccccc3)C(=O)N12)C(=O)CCl [Structure (13b)] ; response: value
-- reply 8.92

* * *

target: factor VII (Homo sapiens); construct: human Factor VIIa (FVIIa); test: Factor VII inhibition assay (Ki, Example 5); format: biochemical
Sequence (P08709 61-212 limits assumed): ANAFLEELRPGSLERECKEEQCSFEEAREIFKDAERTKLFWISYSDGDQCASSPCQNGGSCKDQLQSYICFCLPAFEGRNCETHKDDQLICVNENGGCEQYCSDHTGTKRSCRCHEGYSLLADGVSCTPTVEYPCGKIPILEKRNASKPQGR
Sequence (P08709 213-466 limits assumed): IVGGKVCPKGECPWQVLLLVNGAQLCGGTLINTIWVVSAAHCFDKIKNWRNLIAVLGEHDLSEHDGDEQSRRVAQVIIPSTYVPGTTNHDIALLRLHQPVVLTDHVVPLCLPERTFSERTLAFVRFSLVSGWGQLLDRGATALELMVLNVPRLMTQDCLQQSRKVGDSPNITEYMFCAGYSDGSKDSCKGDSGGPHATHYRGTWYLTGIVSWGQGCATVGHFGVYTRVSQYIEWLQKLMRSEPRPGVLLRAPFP
# reported Ki; entries follow

-- ask Which measured Ki value corresponds to `N=C(N)NCCC[C@H](NC(=O)[C@@H]1CCN2CC[C@@](N)(Cc3ccccc3)C(=O)N12)C(=O)c1nccs1` ?
-- reply 0.968 µM

* * *

biological target: Plasmin (Bos taurus, UniProt P06868); assay: plasmin inhibition assay (Ki, Example 5); format: biochemical, bovine plasma; design: Plasmin: Buffer (see thrombin assay); from tissue; host or cells: bovine plasma
Sequence (P06868 104-583 limits assumed): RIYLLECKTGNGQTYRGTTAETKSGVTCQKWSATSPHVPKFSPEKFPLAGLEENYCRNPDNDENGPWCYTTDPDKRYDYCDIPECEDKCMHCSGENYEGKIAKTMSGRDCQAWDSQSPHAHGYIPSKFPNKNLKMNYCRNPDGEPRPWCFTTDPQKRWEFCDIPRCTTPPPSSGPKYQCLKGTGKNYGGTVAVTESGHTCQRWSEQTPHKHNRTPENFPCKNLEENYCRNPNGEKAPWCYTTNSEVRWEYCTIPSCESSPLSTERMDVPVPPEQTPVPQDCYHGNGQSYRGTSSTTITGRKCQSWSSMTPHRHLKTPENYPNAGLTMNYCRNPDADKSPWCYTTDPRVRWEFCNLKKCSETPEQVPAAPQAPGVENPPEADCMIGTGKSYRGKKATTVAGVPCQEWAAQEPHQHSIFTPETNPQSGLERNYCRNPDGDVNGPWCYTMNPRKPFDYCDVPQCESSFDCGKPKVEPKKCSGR
Sequence (P06868 584-812 limits assumed): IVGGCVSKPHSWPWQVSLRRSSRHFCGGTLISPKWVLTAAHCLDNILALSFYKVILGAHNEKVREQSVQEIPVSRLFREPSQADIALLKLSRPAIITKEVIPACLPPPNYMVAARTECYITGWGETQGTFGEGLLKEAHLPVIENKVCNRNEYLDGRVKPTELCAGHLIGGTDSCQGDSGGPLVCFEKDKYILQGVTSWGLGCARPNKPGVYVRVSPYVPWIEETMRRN
assayMetric: pKi
Note: pKi values are expressed as the negative base-10 logarithm of concentration in M.

-- ask Which measured pKi value corresponds to `COC(=O)c1c[nH]c(C(=O)[C@H](CCCNC(=N)N)NC(=O)[C@@H]2CCN3CC[C@@](N)(Cc4ccccc4)C(=O)N23)n1` ?
-- reply 4.62
